Test system: Candida albicans (ISS 1)
EXPERIMENT DESCRIPTION: MIC for yeast and yeast-like strains
Format: cell-based
CONDITION PARAMETERS: 48 hours, 35° C., read-out: Minimal Inhibitory Concentration (MIC)
MEASURE: MIC (µg/mL)
Answers are plain numbers, in µg/mL.

The following compounds have reported results that may help.
GIVEN SMILES	MEASURED ON	UNIT LABEL	MIC
CCCCCCCCCCCOC(=O)C[C@H](C[N+](C)(C)C)OC(=O)CCCCCC	Candida albicans (ISS 1)	µg/mL	1.56
CCCCCCCCCCCCOC(=O)C[C@H](C[N+](C)(C)C)OC(=O)C(C)C	Candida albicans (ISS 1)	µg/mL	6.25

From here, focus on the item given below.
What value of MIC has been reported for the following compound? "CCCCCCCCCCCCCCCCOC(=O)C[C@H](C[N+](C)(C)C)OC(=O)CC(C)C"
12.5

====

Kindly state MIC for each of the entries shown.
System: Candida parapsilosis (ISS 1)
EXPERIMENT DESCRIPTION: MIC for yeast and yeast-like strains
Assay type: cell-based
CONDITION PARAMETERS: Lodderomyces parapsilosis; 48 hours, 35° C.; read-out: Minimal Inhibitory Concentration (MIC)
Excerpt: The following strains were used (the number of strains is in brackets): Candida (13); Criptococcus (2); Saccharormyces (1); Torulopsis (1). Yeast Nitrogen Base supplemented with 0.15% asparagine and 1.0% glucose (as carbon source) was the medium utilized in the assays. This medium was buffered with 0.165 M 2-(N-morpholino) propane sulfonic acid (MOPS), a non-chelating buffer. Antimicrob. Agents Cheroother. Aug. 34.8:1542-1545). […]
Give bare numbers, in µg/mL.

Before answering, review these 3 worked examples.
COMPOUND	MEASURED ON	MIC (µg/mL)
CCCCCCCCCCCCOC(=O)C[C@H](C[N+](C)(C)C)OC(=O)CC(C)C [ST 1037]	Candida parapsilosis (ISS 1)	3.12
CCCCCCCCCCCOC(=O)C[C@H](C[N+](C)(C)C)OC(=O)CCCCCCC [ST 1000]	Candida parapsilosis (ISS 1)	6.25
CCCCCCCCCCCCCCCCOC(=O)C[C@H](C[N+](C)(C)C)OC(=O)CC(C)C [ST 1001]	Candida parapsilosis (ISS 1)	6.25

Your task in this section: give MIC for each listed record.
1. CCCCCCCCCCCOC(=O)C[C@H](C[N+](C)(C)C)OC(=O)CCC(C)C [ST 1034]
2. CCCCCCCCCCCCCOC(=O)C[C@H](C[N+](C)(C)C)OC(=O)CC(C)C [ST 1033]
3. CCCCCCCCCCCOC(=O)C[C@H](C[N+](C)(C)C)OC(=O)CC(C)C [ST 722]
4. CCCCCCCCCCCCOC(=O)C[C@H](C[N+](C)(C)C)OC(=O)C(C)C [ST 1038]
5. CCCCCCCCCCCOC(=O)C[C@H](C[N+](C)(C)C)OC(=O)CCCCCC [ST 1036]

6.25
3.12
6.25
6.25
6.25

====

Assay read-out MIC; system under study: Aspergillus fumigatus (ATCC 28212).
Numbers only, in µg/mL.

GIVEN SMILES	MEASURE	ENDPOINT RESULT
CCCCCCCCCCCCCOC(=O)C[C@H](C[N+](C)(C)C)OC(=O)CCCCCC	MIC	6.25
CCCCCCCCCCCCCOC(=O)C[C@H](C[N+](C)(C)C)OC(=O)CCCCCCC	MIC	6.25
CCCCCCCCCCCOC(=O)C[C@H](C[N+](C)(C)C)OC(=O)C(C)C	MIC	25
CCCCCCCCCCCCOC(=O)C[C@H](C[N+](C)(C)C)OC(=O)C(C)C	MIC	12.5
CCCCCCCCCCCOC(=O)C[C@H](C[N+](C)(C)C)OC(=O)CCC(C)C	MIC	6.25

Could you tell me MIC for each of these molecules? They are listed below.
1. CCCCCCCCCCCOC(=O)C[C@H](C[N+](C)(C)C)OC(=O)CC(C)C
2. CCCCCCCCCCCCCOC(=O)C[C@H](C[N+](C)(C)C)OC(=O)CCCCC

12.5
3.12

Can you give me MIC for all of these, one by one?
1. CCCCCCCCCCCOC(=O)C[C@H](C[N+](C)(C)C)OC(=O)CCCCCC
2. CCCCCCCCCCCCOC(=O)C[C@H](C[N+](C)(C)C)OC(=O)CC(C)C

1: 3.12; 2: 6.25

====

System: Candida albicans (ISS 1)
EXPERIMENT DESCRIPTION: MIC for yeast and yeast-like strains
Format: cell-based
CONDITION PARAMETERS: 48 hours, 35° C., read-out: Minimal Inhibitory Concentration (MIC)
MEASURE: MIC (µg/mL)
Numbers only, in µg/mL.

Reference set (4 entries):
COMPOUND	MEASURE	ENDPOINT RESULT
CCCCCCCCCCCOC(=O)C[C@H](C[N+](C)(C)C)OC(=O)CC(C)C [ST 722]	MIC	1.56
CCCCCCCCCCCOC(=O)C[C@H](C[N+](C)(C)C)OC(=O)CCC(C)C [ST 1034]	MIC	1.56
CCCCCCCCCCCOC(=O)C[C@H](C[N+](C)(C)C)OC(=O)CCCCCCC [ST 1000]	MIC	3.12
CCCCCCCCCCCCOC(=O)C[C@H](C[N+](C)(C)C)OC(=O)CC(C)C [ST 1037]	MIC	3.12

Could you share which MIC value was measured for CCCCCCCCCCCCCOC(=O)C[C@H](C[N+](C)(C)C)OC(=O)CC(C)C [ST 1033] ?
1.56

====

MIC values recorded for Epidermophyton floccosum (IHEM 3495)
Answers are plain numbers, in µg/mL.

// known answers, use as guide
COMPOUND	MIC, µg/mL
CCCCCCCCCCCCCOC(=O)C[C@H](C[N+](C)(C)C)OC(=O)C(C)CCCC (stereo partly shown)	25
CCCCCCCCCCCCCOC(=O)C[C@H](C[N+](C)(C)C)OC(=O)CCCCCCC	50
CCCCCCCCCCCCCOC(=O)C[C@H](C[N+](C)(C)C)OC(=O)CCCCCC	50
CCCCCCCCCCCCOC(=O)C[C@H](C[N+](C)(C)C)OC(=O)CC(C)C	25
CCCCCCCCCCCOC(=O)C[C@H](C[N+](C)(C)C)OC(=O)CC(C)C	50

# per-item lookup of MIC; items listed below
1. CCCCCCCCCCCCCOC(=O)C[C@H](C[N+](C)(C)C)OC(=O)CCCCC
2. CCCCCCCCCCCCCOC(=O)C[C@H](C[N+](C)(C)C)OC(=O)CC(C)C

[25, 25]

====

Please provide measured MIC for the entries that follow.
Test system: Mucor mucedo (ATCC 7941)
One number for each entry, in µg/mL.

MOLECULE	UNIT LABEL	MIC
CCCCCCCCCCCCCOC(=O)C[C@H](C[N+](C)(C)C)OC(=O)C(C)CCCC (stereo partly drawn)	µg/mL	6.25
CCCCCCCCCCCOC(=O)C[C@H](C[N+](C)(C)C)OC(=O)CCCCCCC	µg/mL	6.25
CCCCCCCCCCCCOC(=O)C[C@H](C[N+](C)(C)C)OC(=O)CC(C)C	µg/mL	12.5
CCCCCCCCCCCCOC(=O)C[C@H](C[N+](C)(C)C)OC(=O)C(C)C	µg/mL	25
CCCCCCCCCCCOC(=O)C[C@H](C[N+](C)(C)C)OC(=O)CCCCCC	µg/mL	6.25

Okay, here is my list. What is MIC for each of these?
1. CCCCCCCCCCCCCOC(=O)C[C@H](C[N+](C)(C)C)OC(=O)CCCCCC
2. CCCCCCCCCCCOC(=O)C[C@H](C[N+](C)(C)C)OC(=O)CC(C)C

12.5
50

====

System: Microsporum canis (IHEM 3522)
MEASURE: MIC

MOLECULE	MIC
CCCCCCCCCCCCCOC(=O)C[C@H](C[N+](C)(C)C)OC(=O)CC(C)C	6.25 µg/mL
CCCCCCCCCCCCCOC(=O)C[C@H](C[N+](C)(C)C)OC(=O)C(C)CCCC (stereo partly shown)	12.5 µg/mL
CCCCCCCCCCCCCOC(=O)C[C@H](C[N+](C)(C)C)OC(=O)CCCCCCC	6.25 µg/mL
CCCCCCCCCCCCOC(=O)C[C@H](C[N+](C)(C)C)OC(=O)CC(C)C	12.5 µg/mL
CCCCCCCCCCCCCOC(=O)C[C@H](C[N+](C)(C)C)OC(=O)CCCCC	6.25 µg/mL
CCCCCCCCCCCOC(=O)C[C@H](C[N+](C)(C)C)OC(=O)CC(C)C	25 µg/mL

With those in mind, consider the next molecule.
Find the recorded MIC belonging to "CCCCCCCCCCCCCOC(=O)C[C@H](C[N+](C)(C)C)OC(=O)CCCCCC" and report it.
12.5 µg/mL
